- experimental_protocol: growth suppression of yeast trafficking mutant, preliminary HTS, modulators of trafficking downstream of Golgi apparatus project, 1536-format plate, OD 615 nm (AID 637)
- experimental_parameters: yeast transport mutant growth, absorbance 615 nm, 18 h; stronger effect = higher value
measure_name: inhibition (%)
Respond numerically; units are % and should not be typed.

Example cases with answers are listed next.
{"compound": "CCOC(=O)c1cc2c(=O)n3cccc(C)c3nc2n(CC2CCCO2)c1=NC(C)=O (stereo unspecified)", "inhibition [%]": 0.91}
{"compound": "Nc1nnc(SCc2cc3c(cc2Cl)OCO3)s1", "inhibition [%]": -1.13}
{"compound": "CCc1c(C)nc2ncnn2c1N1CCC(C(=O)NCc2cccc(OC)c2)CC1", "inhibition [%]": -1.29}
{"compound": "O=S(=O)(c1ccc(N2CCN(c3ccc(F)cc3)CC2)cc1)N1CCCC1", "inhibition [%]": 15.4}
{"compound": "COc1ccccc1-c1c(C)nn2c(N3CCC4(CC3)OCCO4)cc(C)nc12", "inhibition [%]": -2.42}

What value of inhibition has been reported for the following compound? CCOc1ccc(CCNc2nc3c(c(=O)n(C)c(=O)n3C)n2CC)cc1OCC
3.27

Quick one: inhibition for N#Cc1ccccc1Cn1c(=O)n(Cc2ccc(C(=O)NCc3ccco3)cc2)c(=O)c2ccccc21 ?
-7.21

Param item = CCc1nnc(NC(=O)CSc2nnc(Cc3ccccc3)n2-c2ccc(OC)cc2)s1 ; retrieve measured inhibition.
-0.63

* * *

Reported viability values for the following compounds.
- experimental_protocol: reversal of MRP1-mediated doxorubicin resistance, pilot screen, H69AR cells, doxorubicin co-treatment (AID 601)
- experimental_parameters: H69AR cells, CellTiter-Glo, 72 h; compound alone cytotoxicity; at 10 µM
Express your answer in %, writing the number without its unit.

Example entries and their recorded answers appear below.
{"structure_smiles": "Cc1nc(CCNS(=O)(=O)c2cccs2)cs1", "unit_of_measurement": "%", "observed_value": 97.5}
{"structure_smiles": "Nn1c(SCC(=O)Nc2ccccc2)nnc1-c1cccnc1", "unit_of_measurement": "%", "observed_value": 88.1}

// below: viability requested for another compound
Value lookup for viability; key = Cc1nn(Cc2ccccc2)c(C)c1NC(=O)CCC(=O)O
89.4

* * *

- experimental_protocol: growth inhibitors of H69AR lung tumor, primary screen, human, duplicate replicates (AID 580);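 further: 100% = mean luminescence of untreated wells and 0% = no signal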
- experimental_parameters: H69AR lung tumor cells viability, ATP luminescence, 72 h; at 10 µM
Calls of active or inactive are those of the source.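 Rule for the calls: active = viability at or under a set limit in both replicates, limit being median viability minus 3 SD (cut at about 48% in these data, passing the limit was not always enough); inconclusive = at or under the limit in just one replicate; inactive = at or above the limit in both replicates.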
Reply using exactly one outcome from true (1) (active), false (0) (inactive)

Illustrative cases are given below, each with its answer.
{"compound": "Cc1onc(-c2ccccc2)c1C(=O)Nc1sc2c(c1C(N)=O)CCC2", "assigned_class": "false (0)"}
{"compound": "CCCc1ccc(C(C)NC(=O)c2cnccn2)cc1 (stereo unspecified)", "assigned_class": "false (0)"}
{"compound": "CC(=O)/C(C[N+]1(C)CCCCC1)=N\\O", "assigned_class": "false (0)"}

State the result this test recorded for O=C1C2C3C=CC(C3)C2C(=O)N1CNc1ccc(O)cc1 (stereo unspecified) .
false (0)

Hi, do you know how Cc1ccc(S(=O)(=O)N2CCN(C(=O)CSC3CCCC3)CC2)c(C)c1 came out in this test?
false (0)

* * *

- experimental_protocol: SK-BR-3 cell growth inhibitors, pilot screen, 24 h, human (AID 572);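 further: compound exposure lasted between 18 and 24 h rather than exactly 24 h; 100% = carrier-treated control wells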
- experimental_parameters: SK-BR-3 viability, CellTiter-Glo luminescence, at 10 µM, stronger effect = lower value
Listing: viability of selected compounds
Answer format: numeric, % implied, no suffix.

Answered examples (5):
{"compound": "Cc1cccc(N(C)C(=O)c2cc3cc4ccc(C)cc4nc3o2)c1", "unit_of_measurement": "%", "observed_value": 89}
{"compound": "COc1ccccc1Nc1nc(N)nc(-c2cc3ccccc3o2)n1", "unit_of_measurement": "%", "observed_value": 91}
{"compound": "CCCCOc1ccc(-c2ncc(C(=O)OCC)c(N)n2)cc1", "unit_of_measurement": "%", "observed_value": 89.5}
{"compound": "CC1CCN(CCc2nc3cc(NS(=O)(=O)c4ccc(F)cc4)ccc3n2C)CC1", "unit_of_measurement": "%", "observed_value": 89}
{"compound": "Clc1ccc(C2Nc3ccccc3-n3cccc32)cc1 (stereo not drawn)", "unit_of_measurement": "%", "observed_value": 92}

Consider the compound Cc1ccn2cc(CCNC(=O)CC(C)(C)C)nc2c1 and give its measured viability.
89

I am curious: what viability value has been reported for Cc1csc(NC(=O)CCn2c(=O)oc3ccccc32)n1 ?
91

What viability value was documented for this compound, Cc1cc(=O)[nH]c(S/C=C/c2ccccc2)n1 ?
91.5

* * *

Item-by-item account of viability
- experimental_protocol: reversal of MRP1-mediated doxorubicin resistance, pilot screen, H69AR cells, doxorubicin co-treatment (AID 601)
- experimental_parameters: H69AR cells, CellTiter-Glo, 72 h; compound alone cytotoxicity; at 10 µM
Please respond with the number in % and leave the unit unwritten.

{"structure_smiles": "CCn1c(=O)cc(SCC(=O)Nc2ccc3c(c2)OCO3)c2ccccc21", "observed_value": 87.9}
{"structure_smiles": "CC(=O)Nc1c(I)c(NC(C)=O)c(I)c(C(=O)O)c1I", "observed_value": 103}
{"structure_smiles": "COc1cccc(C(=O)Nc2ccc(NC(C)=O)cn2)c1", "observed_value": 106}
{"structure_smiles": "CSc1nnc(-c2cnccn2)n1Cc1ccccc1", "observed_value": 102}
{"structure_smiles": "Cc1nc2ccc(S(=O)(=O)NCC(=O)N3CCCCC3)cc2s1", "observed_value": 87.4}

Read the next record carefully.
Could you share which viability value was measured for O=C(Cn1cnc2c(cnn2-c2ccc(F)cc2)c1=O)N1CCN(c2ccccc2)CC1 ?
70.3

* * *

The compounds listed here are annotated with their viability.
- experimental_protocol: reversal of MRP1-mediated doxorubicin resistance, pilot screen, H69AR cells, doxorubicin co-treatment (AID 601)
- experimental_parameters: H69AR cells + 2 uM doxorubicin, CellTiter-Glo, 72 h; measured here: viability with 2 uM doxorubicin; at 10 µM; stronger effect = lower value
Write the answer as a number in %, unit excluded.

I have this compound here, CC(=O)OCC(=O)[C@H]1CC[C@H]2[C@@H]3CC=C4C[C@@H](O)CC[C@]4(C)[C@H]3CC[C@]12C , and I need its recorded viability.
92.3

Query: viability; subject: COc1ccccc1-c1nc(SCc2ccccn2)n[nH]1
91.9

Reported viability for O=C(CNCC1CCCO1)Nc1ccccc1-n1cccc1 (stereo not drawn) : what is it?
90.6

* * *

- experimental_protocol: reducers of endogenous Her2 protein level, primary screen, SKBR3 breast tumor cells, AlphaScreen, ATP viability (AID 461);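 further: percent of carrier control wells set as 100% viability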
- experimental_parameters: 18-24 h, measured here: SKBR3 viability, ATP luminescence, at 10 µM
measure_name: viability

# count of solved cases: 5
{"molecule": "COc1ccc(C2C=C(c3ccccc3)Nc3ncnn32)cc1 (stereo unspecified)", "viability": "92.5%"}
{"molecule": "Cc1cc(C)c2c(=O)[nH]c(=O)n(Cc3ccccc3)c2n1", "viability": "64%"}
{"molecule": "CCOC(=O)Cc1nnc2c(Nc3ccccc3F)nc3nonc3n12", "viability": "108%"}
{"molecule": "N#Cc1ccccc1Cn1c(=O)n(Cc2ccc(C(=O)NCc3ccco3)cc2)c(=O)c2sccc21", "viability": "75.5%"}
{"molecule": "CN(C)CC(=O)N1c2ccccc2CCc2ccc(NC(=O)c3ccc(N)cc3)cc21", "viability": "103%"}

Give the measured viability of CC1CCc2cc(F)cc3c(O)c(C(=O)Nc4cnccn4)c(=O)n1c23 (stereo unspecified) .
97.5%

* * *

- experimental_protocol: 384-well plate pilot, post-Golgi transport modulator project, inhibition of yeast transport mutant growth (AID 636)
- experimental_parameters: absorbance 615 nm, about 18 h, stronger effect = higher value
measure_name: inhibition (%)
Give your result in % as a bare value.

Form field: reported inhibition of O=C(CCCCn1c(=O)c2ccccc2n(Cc2ccc(Cl)cc2)c1=O)NCc1ccco1
-1.17

Request the reported inhibition associated with O=c1c2cc3ccccc3n2cnn1Cc1ccccc1F
-1.95

// returns reported inhibition for input COC(=O)c1[nH]c2ccc(C)cc2c1NC(=O)CN1CCC(C)CC1
-4.27

What measured inhibition goes with O=C1c2ccccc2NC(c2cccc(F)c2)N1Cc1ccco1 (stereo unspecified) ?
-6.85

Which inhibition is listed for COc1ccc(C(=O)Nc2cccnc2)cc1C(=O)Nc1cccnc1 ?
7.53

Fill in the blank: the reported inhibition of COCCNC(=O)c1c(N)n(/N=C/c2cccs2)c2nc3ccccc3nc12 is ____.
0.66

* * *

- experimental_protocol: HUVEC growth inhibition – cell-based, human, primary screen (AID 575);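 further: 100% = median of untreated cell wells with 0.1% DMSO on each plate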
- experimental_parameters: HUVEC proliferation, CellTiter-Glo luminescence, 72 h; at 10 µM; stronger effect = lower value
measure_name: viability (%)
Hi! Could you send only the number? It should be in %, unit omitted.

{"compound": "Cc1ccc(-c2nc3cc(NC(=O)C(C)C)ccc3o2)cc1C", "viability (%)": 51.8}
{"compound": "CCn1c(SCC(=O)Nc2cc(NC(C)=O)ccc2OC)nnc1-c1ccccn1", "viability (%)": 89.6}
{"compound": "O=C(Nc1ccccc1-c1nc2ccccc2o1)c1ccc2c(c1)OCCO2", "viability (%)": 66.7}
{"compound": "O=C(NC1CCCCCCC1)C1CCN(c2nc3ccccc3o2)CC1", "viability (%)": 85.7}

Need viability, item CC1(C)NC(=O)N(CCOc2cccc(Cl)c2Cl)C1=O
98.7

Consider the compound COc1ccc(NC(=O)N2CCC(O)(c3cccnc3)CC2)c(OC)c1 and give its measured viability.
83.6

State the recorded viability for this entry: Cc1nc(SCC(=O)c2c[nH]c3ccccc23)n[nH]1
81.1

Consider the compound OCc1nc2ccccc2n1CCCOc1ccccc1 and give its measured viability.
90.6

Recorded viability for COc1ccc(CNC(=O)C(c2ccco2)N(Cc2cccs2)C(=O)Cc2cccs2)cc1 (stereo unspecified) , please?
67.5

Give its viability value. Item: COCC(=O)N(Cc1ccccc1)c1ccccn1
83.3

For CN1CCN(C(=O)CN(Cc2ccc(Cl)cc2)S(C)(=O)=O)CC1 , what is its reported viability?
93.3

Query (compound): CC(=O)Nc1ccc(S(=O)(=O)N(CC(=O)O)Cc2ccccc2)cc1 ; field requested: viability
93.7

Any idea what its viability is? The compound is CCCCCC(=O)O[C@]1(C(C)=O)CC[C@H]2[C@@H]3CCC4=CC(=O)CC[C@]4(C)[C@H]3CC[C@@]21C
4.16

Give its viability value. Item: COc1ccc(OC)c(NC(=O)CS(=O)(=O)c2ccccc2)c1
94.7

Sample COc1ccccc1NC(=O)N1CCN(c2ccccc2F)CC1 — what was its viability?
108

State the recorded viability for this entry: Cc1cc(C(C)(C)C)cc(C)c1CC1=NCCN1
86.3

Please report the recorded viability for CCn1c(CSc2ncccn2)nnc1SCC(=O)N1c2ccccc2CC1C (stereo unspecified) .
87.5

Fill blank: measured viability of the compound CC(C)c1ccc(-c2nc(N3CCOCC3)[nH]c(=O)c2C#N)cc1 is ____.
79.3

Which measured viability value corresponds to CC1CCN(CCCNC(=O)c2coc3nc4ccccc4nc23)CC1 ?
90.6

Quick one: viability of COC(=O)c1ccc(CSc2nnnn2Cc2ccccc2)cc1 ?
98.6

Query (compound): CCC(=O)Nc1ccc(NC(=O)CSc2nnnn2C(C)C)cc1 ; field requested: viability
111

Look at this compound and give its reported viability. CCC(=O)N1CCc2cc(Br)cc(S(=O)(=O)C3(C(=O)OC)CC3)c21
102

Field request: viability | item: CCOc1ccc(NC(=O)Cn2nnc(-c3ccccc3F)n2)cc1
100

// viability lookup, key: C[C@]12CC[C@@H]3c4ccc(O)cc4C(=O)C[C@H]3[C@@H]1CC[C@@H]2O
89.2

Please give the measured viability for this compound: COc1ccc(N(CC(=O)Nc2ccc(F)c(Cl)c2)S(=O)(=O)c2c(C)noc2C)cc1
93.8

What does the record list as viability for COC(=O)C1CCN(C(=O)CN2C(=O)NC(CCc3ccccc3)C2=O)CC1 (stereo unspecified) ?
94.2

What does the record list as viability for Cc1nc(Sc2cccn2C)c(C(F)(F)F)c(=O)[nH]1 ?
102
